# Test system: Prostate DU145 cells
# Test Details: cells
# Assay Setup: read-out: LC50; 48-h treatment; amifostine ND = not definable up to 500 µM
# Method: The percentage of growth inhibition was calculated as follows: […]
Test Readout: CC50 (µM)
Output spec: scalar in µM, unitless text.

stdin: Find the recorded CC50 belonging to COCCOCCOCCOCCOCCOCCSSCCNCCCN.O=C(O)C(F)(F)F.O=C(O)C(F)(F)F [1LP65, m-PEG6-S-S-WR1065] and report it.
stdout: 71.4

---

# Tested on: Prostate DU145 cells
# Test Details: cells
# Assay Setup: Homo sapiens, DU-145, 48 h
Test Readout: pIC50
The quantity pIC50 is defined as the negative base-10 logarithm of the molar concentration.

stdin: What does the data say about its pIC50? Entry: NCCCNCCSP(=O)(O)O [Amifostine, amifostine, reference compound]
stdout: 3.50

---

# System: human cancer cell lines
# Test Details: cells
# Assay Setup: read-out: LC50, TP53 Mutant; average of HCC38, MDA-MB-231, H1975, DU145, PC3
Test Readout: CC50 (µM)
Your answer should be a plain number; it is taken to be in µM.

stdin: Give the measured CC50 of COCCOCCOCCOCCOCCOCCSSCCNCCCN.O=C(O)C(F)(F)F.O=C(O)C(F)(F)F .
stdout: 72.9

---

# System: NCI-H460 NSCLC cells
# Assay Setup: read-out: LC50; 48-h treatment; amifostine ND = not definable up to 500 µM
Test Readout: CC50 (µM)
Quick reminder: number only, in µM, skip the unit.

stdin: For the compound shown here, COCCOCCOCCOCCOCCOCCSSCCNCCCN.O=C(O)C(F)(F)F.O=C(O)C(F)(F)F , give the reported CC50.
stdout: 155

---

# Test system: NCI-H1437 NSCLC cells
# Assay Setup: 48-h treatment; amifostine ND = not definable up to 500 µM
Test Readout: IC50 (µM)
Unit µM implied. Number only.

stdin: Any idea what IC50 was measured for COCCOCCOCCOCCOCCOCCSSCCNCCCN.O=C(O)C(F)(F)F.O=C(O)C(F)(F)F [1LP65, m-PEG6-S-S-WR1065] ?
stdout: 74.8

---

# Tested on: A549 NSCLC cells
# Test Details: cells
# Assay Setup: Homo sapiens, A549, 48 h
Test Readout: IC50 (µM)
The answer is to be given in µM; state only the numeric part.

stdin: For the molecule shown here, NCCCNCCSP(=O)(O)O [Amifostine, amifostine, reference compound] , give the reported IC50.
stdout: 261

---

# Tested on: human cancer cell lines
# Test Details: cells
# Assay Setup: read-out: LC50, TP53 Wild-Type; average of A549, H460, LNCaP
Test Readout: CC50
Note: state the figure and append the unit.

stdin: Using the record for COCCOCCOCCOCCOCCOCCSSCCNCCCN.O=C(O)C(F)(F)F.O=C(O)C(F)(F)F , report its CC50.
stdout: 133 µM

---

# Test system: Mammary gland MDA-MB-231 cells
# Test Details: CyQUANT-NF proliferation assay, 48-h drug treatment
# Type: cell-based
# Assay Setup: 48-h treatment; amifostine ND = not definable up to 500 µM; read-out: LC50 (the source's name)
Test Readout: CC50 (µM)
Write the number in µM without appending the unit.

stdin: # get_value(readout='CC50', item= COCCOCCOCCOCCOCCOCCSSCCNCCCN.O=C(O)C(F)(F)F.O=C(O)C(F)(F)F [1LP65, m-PEG6-S-S-WR1065] )
stdout: 110

---

# Tested on: A549 NSCLC cells
# Test Details: cells
# Assay Setup: without DFMO pretreatment, 48 h
Test Readout: IC50
Please provide the amount together with its unit, number first.

stdin: Fill in: IC50 of COCCOCCOCCOCCOCCOCCSSCCNCCCN.O=C(O)C(F)(F)F.O=C(O)C(F)(F)F is ___
stdout: 51 µM

---

# Tested on: Prostate PC3 cells
# Test Details: cells
# Assay Setup: Homo sapiens, PC-3, 48 h
Test Readout: pIC50
Keep in mind that pIC50 stands for -log10 of concentration in molar terms.

stdin: For the compound shown here, NCCCNCCSP(=O)(O)O [Amifostine, amifostine, reference compound] , give the reported pIC50.
stdout: 3.99

---

# System: A549 NSCLC cells
# Test Details: cells
# Assay Setup: pretreated with 1 mM DFMO for 24 h, then 48 h
Test Readout: IC50 (µM)
Write down the numeric answer in µM and omit the unit.

stdin: Lab note: need IC50 with A549 NSCLC cells for entry COCCOCCOCCOCCOCCOCCSSCCNCCCN.O=C(O)C(F)(F)F.O=C(O)C(F)(F)F , please look it up.
stdout: 33.1

---

# Test system: NCI-H1975 NSCLC cells
# Test Details: cells
# Assay Setup: read-out: LC50; 48-h treatment; amifostine ND = not definable up to 500 µM
# Experimental: The percentage of growth inhibition was calculated as follows: […]
Test Readout: CC50 (µM)
Answer in µM, number only, no unit symbol.

stdin: Given the compound COCCOCCOCCOCCOCCOCCSSCCNCCCN.O=C(O)C(F)(F)F.O=C(O)C(F)(F)F , what is its reported CC50?
stdout: 63.3

---

# Test system: Mammary gland HCC38 cells
# Test Details: CyQUANT-NF proliferation assay, 48-h drug treatment
# Type: cell-based
# Assay Setup: 48-h treatment; amifostine ND = not definable up to 500 µM; read-out: LC50 (the source's name)
Test Readout: CC50
Report as: number unit

stdin: Recorded CC50 for COCCOCCOCCOCCOCCOCCSSCCNCCCN.O=C(O)C(F)(F)F.O=C(O)C(F)(F)F , please?
stdout: 59.9 µM

---

# Tested on: Ovary SKOV3 cells
# Test Details: cells
# Assay Setup: read-out: LC50; 48-h treatment; amifostine ND = not definable up to 500 µM
Test Readout: CC50 (µM)
Respond with the bare value in µM.

stdin: Requested field: CC50. Item: COCCOCCOCCOCCOCCOCCSSCCNCCCN.O=C(O)C(F)(F)F.O=C(O)C(F)(F)F [1LP65, m-PEG6-S-S-WR1065]
stdout: 68.8

---

# Test system: Mammary gland HCC38 cells
# Test Details: CyQUANT-NF proliferation assay, 48-h drug treatment
# Assay type: cell-based
# Assay Setup: Homo sapiens, HCC38; 48-h treatment; amifostine ND = not definable up to 500 µM
Test Readout: IC50 (µM)
State just the number; it will be interpreted in µM.

stdin: Quick one: IC50 of NCCCNCCSP(=O)(O)O [Amifostine, amifostine, reference compound] ?
stdout: 276

---

# Test system: human cancer cell lines
# Test Details: cells
# Assay Setup: read-out: LC50, range for individual cell lines; 15 cell lines for 4SP65, 11 for 1LP65
Test Readout: CC50

stdin: Give the measured CC50 of COCCOCCOCCOCCOCCOCCSSCCNCCCN.O=C(O)C(F)(F)F.O=C(O)C(F)(F)F .
stdout: 51.3 to 157 µM

---

# Tested on: Ovary TOV21G cells
# Test Details: cells
# Assay Setup: read-out: LC50; 48-h treatment; amifostine ND = not definable up to 500 µM
Test Readout: CC50 (µM)
Unit µM implied. Number only.

stdin: Would you mind telling me what CC50 value was observed for COCCOCCOCCOCCOCCOCCSSCCNCCCN.O=C(O)C(F)(F)F.O=C(O)C(F)(F)F ?
stdout: 51.3

---

# Tested on: A549 NSCLC cells
# Test Details: cells
# Protocol: The percentage of growth inhibition was calculated as follows: […]
Test Readout: CC50 (µM)
API: value field is a number in µM; no unit string.

stdin: Return reported CC50; argument: COCCOCCOCCOCCOCCOCCSSCCNCCCN.O=C(O)C(F)(F)F.O=C(O)C(F)(F)F [1LP65, m-PEG6-S-S-WR1065]
stdout: 155

---

# Test system: NCI-H1437 NSCLC cells
# Assay Setup: read-out: LC50; 48-h treatment; amifostine ND = not definable up to 500 µM
Test Readout: CC50 (µM)
Expressed in µM, but write only the number.

stdin: Which measured CC50 value corresponds to COCCOCCOCCOCCOCCOCCSSCCNCCCN.O=C(O)C(F)(F)F.O=C(O)C(F)(F)F ?
stdout: 157

---

# System: Malignant pleural mesothelioma PPMMill cells
# Test Details: cells
# Assay Setup: drug alone, 48 h; 4SP65/cisplatin study
Test Readout: IC50 (µM)
Write it as a number; the unit µM goes unstated.

stdin: Query: IC50; subject: N.N.[Cl][Pt][Cl] [Cisplatin, cisplatin, reference compound]
stdout: 40.5

---

# Tested on: Prostate PC3 cells
# Test Details: cells
# Assay Setup: read-out: LC50; 48-h treatment; amifostine ND = not definable up to 500 µM
Test Readout: CC50
Value and unit, in that order.

stdin: Please give the measured CC50 for this compound: COCCOCCOCCOCCOCCOCCSSCCNCCCN.O=C(O)C(F)(F)F.O=C(O)C(F)(F)F [1LP65, m-PEG6-S-S-WR1065]
stdout: 60 µM
